All figures here come from paper PMC10247784.

Each entry below carries its recorded RLU.
assaySystem: mouse Tas2r144 (Mus musculus)
Construct: expressed in transfected cells; host or cells: HEK293T-Gα16gust44
Sequence (Q7TQB8 whole entry): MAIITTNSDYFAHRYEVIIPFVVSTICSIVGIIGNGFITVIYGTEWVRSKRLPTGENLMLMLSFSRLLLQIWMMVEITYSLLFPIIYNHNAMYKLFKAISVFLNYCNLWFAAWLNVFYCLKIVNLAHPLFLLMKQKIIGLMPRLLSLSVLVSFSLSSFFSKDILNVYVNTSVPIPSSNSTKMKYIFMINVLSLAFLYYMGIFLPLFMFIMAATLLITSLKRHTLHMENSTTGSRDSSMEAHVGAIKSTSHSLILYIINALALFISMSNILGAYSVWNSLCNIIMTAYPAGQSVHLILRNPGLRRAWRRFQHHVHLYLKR
protocolNotes: Calcium imaging assay (FLIPR), HEK293T-Gα16gust44 cells transfected with mouse Tas2r144
Type: cell-based
studyConditions: Time 114.781 s
The reply should be a number in RLU, with the unit left off.

compound: C[C@H](CCC(=O)NCC(=O)O)[C@H]1CC[C@H]2[C@@H]3[C@H](O)C[C@@H]4C[C@H](O)CC[C@]4(C)[C@H]3C[C@H](O)[C@]12C [Glycocholic Acid, glycocholic acid]
experimentalValue: 328.654
//
compound: C[C@H](CCC(=O)NCCS(=O)(=O)O)[C@H]1CC[C@H]2[C@@H]3CC[C@@H]4C[C@H](O)CC[C@]4(C)[C@H]3CC[C@]12C [Taurolithocholic Acid, taurolithocholic acid]
experimentalValue: 357.6
//
compound: C[C@H](CCC(=O)NCCS(=O)(=O)O)[C@H]1CC[C@H]2[C@@H]3[C@H](O)C[C@@H]4C[C@H](O)CC[C@]4(C)[C@H]3C[C@H](O)[C@]12C [Taurocholic Acid, taurocholic acid]
experimentalValue: 478.341

# lookup: RLU of C[C@H](CCC(=O)O)[C@H]1CC[C@H]2[C@@H]3[C@H](O)C[C@@H]4C[C@H](O)CC[C@]4(C)[C@H]3C[C@H](O)[C@]12C [Cholic Acid, cholic acid]
433.077

###

assaySystem: human TAS2R4 (Homo sapiens, UniProt Q9NYW5)
Construct: expressed in transfected cells; host or cells: HEK293T-Gα16gust44
Sequence (Q9NYW5 whole entry): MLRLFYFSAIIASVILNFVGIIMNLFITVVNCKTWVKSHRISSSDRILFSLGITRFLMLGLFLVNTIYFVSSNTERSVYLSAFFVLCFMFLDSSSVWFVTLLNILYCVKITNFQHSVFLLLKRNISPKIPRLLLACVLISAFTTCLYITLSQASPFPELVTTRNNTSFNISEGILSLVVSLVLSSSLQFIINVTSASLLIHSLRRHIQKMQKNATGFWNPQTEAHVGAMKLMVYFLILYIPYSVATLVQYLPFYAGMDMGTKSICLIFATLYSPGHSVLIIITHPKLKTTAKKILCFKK
protocolNotes: Calcium imaging assay (FLIPR), HEK293T-Gα16gust44 cells transfected with human TAS2R4; further: test concentration or dose not given here
Format: cell-based
studyConditions: Time (s) 34.781 (TCA, TLCA: 34.782)
RLU, fluorescence trace strictly under 200 RLU means true; at 200 RLU or over means false.

Solved cases below.
itemSmiles: C[C@H](CCC(=O)NCCS(=O)(=O)O)[C@H]1CC[C@H]2[C@@H]3[C@H](O)C[C@@H]4C[C@H](O)CC[C@]4(C)[C@H]3C[C@H](O)[C@]12C
label: false

itemSmiles: C[C@H](CCC(=O)NCCS(=O)(=O)O)[C@H]1CC[C@H]2[C@@H]3CC[C@@H]4C[C@H](O)CC[C@]4(C)[C@H]3CC[C@]12C
label: true

itemSmiles: C[C@H](CCC(=O)O)[C@H]1CC[C@H]2[C@@H]3[C@H](O)C[C@@H]4C[C@H](O)CC[C@]4(C)[C@H]3C[C@H](O)[C@]12C
label: false

# strict comparison: is reported RLU, fluorescence trace < 200 RLU? input = C[C@H](CCC(=O)NCC(=O)O)[C@H]1CC[C@H]2[C@@H]3[C@H](O)C[C@@H]4C[C@H](O)CC[C@]4(C)[C@H]3C[C@H](O)[C@]12C
false

Input C[C@H](CCC(=O)O)[C@H]1CC[C@H]2[C@@H]3CC[C@@H]4C[C@H](O)CC[C@]4(C)[C@H]3C[C@H](O)[C@]12C ; condition: RLU, fluorescence trace strictly below 200 RLU. Does it hold?
true

Lab log: compare recorded RLU, fluorescence trace with 200 RLU; is it strictly lower for C[C@H](CCC(=O)O)[C@H]1CC[C@H]2[C@@H]3[C@@H](O)C[C@@H]4C[C@H](O)CC[C@]4(C)[C@H]3CC[C@]12C ?
false

###

assaySystem: human TAS2R1 (Homo sapiens, UniProt Q9NYW7)
Construct: expressed in transfected cells; host or cells: HEK293T-Gα16gust44
Sequence (Q9NYW7 1-299): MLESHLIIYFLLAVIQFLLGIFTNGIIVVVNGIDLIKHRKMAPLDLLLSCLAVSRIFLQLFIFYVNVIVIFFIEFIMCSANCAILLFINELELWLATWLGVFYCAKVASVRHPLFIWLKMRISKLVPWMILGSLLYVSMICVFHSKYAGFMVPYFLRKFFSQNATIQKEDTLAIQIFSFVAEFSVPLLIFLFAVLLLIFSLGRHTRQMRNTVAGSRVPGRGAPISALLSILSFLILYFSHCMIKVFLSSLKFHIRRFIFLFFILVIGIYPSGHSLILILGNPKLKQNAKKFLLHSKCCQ
protocolNotes: Calcium imaging assay (FLIPR), HEK293T-Gα16gust44 cells transfected with human TAS2R1
Assay type: cell-based
studyConditions: calcium trace, sheet TAS2R1; Time 305.562 s
# RLU per record follows
Write the number in RLU without appending the unit.

itemSmiles: C[C@H](CCC(=O)O)[C@H]1CC[C@H]2[C@@H]3[C@H](O)C[C@@H]4C[C@H](O)CC[C@]4(C)[C@H]3C[C@H](O)[C@]12C
units: RLU
RLU: -13.9937

Under human TAS2R1 (Homo sapiens, UniProt Q9NYW7): RLU value of C[C@H](CCC(=O)O)[C@H]1CC[C@H]2[C@@H]3[C@@H](O)C[C@@H]4C[C@H](O)CC[C@]4(C)[C@H]3CC[C@]12C ?
-21.932

Which measured RLU belongs to C[C@H](CCC(=O)O)[C@H]1CC[C@H]2[C@@H]3[C@H](O)C[C@@H]4C[C@H](O)CC[C@]4(C)[C@H]3CC[C@]12C , tested on human TAS2R1 (Homo sapiens, UniProt Q9NYW7)?
138.341

Value wanted: RLU (human TAS2R1 (Homo sapiens, UniProt Q9NYW7)) of entry C[C@H](CCC(=O)O)[C@H]1CC[C@H]2[C@@H]3CC[C@@H]4C[C@H](O)CC[C@]4(C)[C@H]3CC[C@]12C
255.305

###

Reported RLU values for the following molecules.
assaySystem: mouse Tas2r105 (Mus musculus, UniProt Q9JKT4)
Construct: expressed in transfected cells; host or cells: HEK293T-Gα16gust44
Sequence (Q9JKT4 1-300): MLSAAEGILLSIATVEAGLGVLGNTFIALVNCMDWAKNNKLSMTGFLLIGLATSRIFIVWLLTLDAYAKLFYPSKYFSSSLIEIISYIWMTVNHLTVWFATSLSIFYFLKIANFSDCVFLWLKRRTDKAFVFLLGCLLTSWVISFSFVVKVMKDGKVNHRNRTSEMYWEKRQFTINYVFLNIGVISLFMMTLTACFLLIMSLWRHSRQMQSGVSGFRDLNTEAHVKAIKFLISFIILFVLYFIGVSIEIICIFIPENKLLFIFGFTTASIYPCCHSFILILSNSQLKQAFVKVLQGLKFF
protocolNotes: Calcium imaging assay (FLIPR), HEK293T-Gα16gust44 cells transfected with mouse Tas2r105
Assay type: cell-based
studyConditions: Time 24.781 s
Provide the reading as a plain figure in RLU.

For orientation, consider the following solved cases.
molecule: C[C@H](CCC(=O)O)[C@H]1CC[C@H]2[C@@H]3CC[C@@H]4C[C@H](O)CC[C@]4(C)[C@H]3C[C@H](O)[C@]12C [Deoxycholic Acid, deoxycholic acid]
parameter: RLU
experimentalValue: 0.577

molecule: C[C@H](CCC(=O)O)[C@H]1CC[C@H]2[C@@H]3CC[C@@H]4C[C@H](O)CC[C@]4(C)[C@H]3CC[C@]12C [Lithocholic Acid, lithocholic acid]
parameter: RLU
experimentalValue: 13.8358

Returns the measured RLU for the input molecule. Input: C[C@H](CCC(=O)NCC(=O)O)[C@H]1CC[C@H]2[C@@H]3[C@H](O)C[C@@H]4C[C@H](O)CC[C@]4(C)[C@H]3C[C@H](O)[C@]12C [Glycocholic Acid, glycocholic acid]
15.6549

Using the record for C[C@H](CCC(=O)O)[C@H]1CC[C@H]2[C@@H]3[C@H](O)C[C@@H]4C[C@H](O)CC[C@]4(C)[C@H]3C[C@H](O)[C@]12C [Cholic Acid, cholic acid] , report its RLU.
10.8272

###

assaySystem: mouse Tas2r105 (Mus musculus, UniProt Q9JKT4)
Construct: expressed in transfected cells; host or cells: HEK293T-Gα16gust44
Sequence (Q9JKT4 1-300): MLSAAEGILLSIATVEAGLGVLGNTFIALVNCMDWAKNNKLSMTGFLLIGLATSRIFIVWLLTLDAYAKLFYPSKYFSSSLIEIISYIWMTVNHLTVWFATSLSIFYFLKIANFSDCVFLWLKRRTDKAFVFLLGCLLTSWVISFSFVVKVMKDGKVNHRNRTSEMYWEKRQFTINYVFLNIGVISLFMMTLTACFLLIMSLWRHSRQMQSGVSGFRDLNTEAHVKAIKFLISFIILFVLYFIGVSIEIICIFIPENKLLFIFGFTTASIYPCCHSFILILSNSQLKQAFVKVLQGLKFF
protocolNotes: Calcium imaging assay (FLIPR), HEK293T-Gα16gust44 cells transfected with mouse Tas2r105
Format: cell-based
studyConditions: Time 52.781 s
Experimental: This set of bile acids was chosen because of their commercial availability in high purities, their diversity within the class of bile acids and their previous detection and quantitation in human blood. Stock solutions were prepared in DMSO. […] Measured data were negative control corrected by subtracting the signal of the mock-transfected cells and exported to Microsoft Excel using the FLIPR software ScreenWorks 4.2. […]
Measured RLU of individual entries
Give the number; RLU is assumed, so skip it.

If you can, please state the reported RLU value of C[C@H](CCC(=O)O)[C@H]1CC[C@H]2[C@@H]3[C@H](O)C[C@@H]4C[C@H](O)CC[C@]4(C)[C@H]3C[C@H](O)[C@]12C .
217.91

Entry C[C@H](CCC(=O)O)[C@H]1CC[C@H]2[C@@H]3CC[C@@H]4C[C@H](O)CC[C@]4(C)[C@H]3CC[C@]12C has what RLU?
63.4969

Look at this molecule and give its reported RLU. C[C@H](CCC(=O)O)[C@H]1CC[C@H]2[C@@H]3CC[C@@H]4C[C@H](O)CC[C@]4(C)[C@H]3C[C@H](O)[C@]12C
20.1786

What does the data say about its RLU? Entry: C[C@H](CCC(=O)NCC(=O)O)[C@H]1CC[C@H]2[C@@H]3[C@H](O)C[C@@H]4C[C@H](O)CC[C@]4(C)[C@H]3C[C@H](O)[C@]12C
279.774
